Reference for the values: patent US20080020978A1

molecular target: CGRP1 receptor (CRLR/RAMP1 complex) of human neuroblastoma SK-N-MC cells (human, UniProt Q16602 23-461; O60894 27-148); test: cell-based or functional assay
Sequence (Q16602 23-461, chain 1 of 2): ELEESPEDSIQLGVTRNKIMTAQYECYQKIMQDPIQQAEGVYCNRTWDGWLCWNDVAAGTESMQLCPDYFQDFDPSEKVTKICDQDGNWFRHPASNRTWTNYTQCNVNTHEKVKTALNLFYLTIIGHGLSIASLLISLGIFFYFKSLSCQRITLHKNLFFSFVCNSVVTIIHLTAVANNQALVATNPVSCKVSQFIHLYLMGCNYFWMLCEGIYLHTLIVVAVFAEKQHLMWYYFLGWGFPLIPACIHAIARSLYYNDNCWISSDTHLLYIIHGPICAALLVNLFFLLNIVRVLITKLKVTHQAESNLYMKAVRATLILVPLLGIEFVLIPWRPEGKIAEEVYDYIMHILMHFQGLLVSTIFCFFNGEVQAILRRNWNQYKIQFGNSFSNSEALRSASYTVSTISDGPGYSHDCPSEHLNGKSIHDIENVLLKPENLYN
Sequence (O60894 27-148, chain 2 of 2): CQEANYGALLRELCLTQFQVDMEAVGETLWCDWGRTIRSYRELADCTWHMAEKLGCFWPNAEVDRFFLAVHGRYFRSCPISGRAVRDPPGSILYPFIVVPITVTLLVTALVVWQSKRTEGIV
Criterion: IC50 strictly less than 0.4 nM. Met: Met. Not met: Not met.

Binder: Ac-WVTHRLAGLLSQSGGVVRCNFVPTDVGPFAF-NH2 (not fully specified (residue 19); printed as Ac-WVTHRLAGLLSQSGGVVRCNFVPTDVGPFAF-NH2) [SEQ ID NO 36]
Category Label: Not met
//
Binder: Ac-WVTHRLAGLLSASGGVVRCNFVPTDVGPFAF-NH2 [SEQ ID NO 33]
Category Label: Not met
//
Binder: Ac-WVTHQLAGLLSQSGGVVRKNFVPTDVGPFAF-NH2 [SEQ ID NO 39]
Category Label: Not met
//
Binder: WVTHXLAGLLSRSGGVVRKNFVPTDVGPFAF (Ac-WVTH(Cit)LAGLLSRSGGVVRKNFVPTDVGPFAF-NH2; 20 k Da PEG, Amine linkage) [SEQ ID NO 28]
Category Label: Not met
//
Binder: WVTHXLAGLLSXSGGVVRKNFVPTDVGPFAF (Ac-WVTH(hR)LAGLLS(hR)SGGVVRKNFVPTDVGPFAF-NH2; 20 k Da PEG, Amine linkage) [SEQ ID NO 26]
Category Label: Met
//
Binder: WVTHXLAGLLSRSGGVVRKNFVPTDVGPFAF (Ac-WVTH(hR)LAGLLSRSGGVVRKNFVPTDVGPFAF-NH2; 20 k Da PEG, Amine linkage) [SEQ ID NO 22]
Category Label: Met
